Origin of the recorded values: patent US10287255B2

system name: human recombinant HDAC6 (Homo sapiens)
Sequence (Q9UBN7 whole entry): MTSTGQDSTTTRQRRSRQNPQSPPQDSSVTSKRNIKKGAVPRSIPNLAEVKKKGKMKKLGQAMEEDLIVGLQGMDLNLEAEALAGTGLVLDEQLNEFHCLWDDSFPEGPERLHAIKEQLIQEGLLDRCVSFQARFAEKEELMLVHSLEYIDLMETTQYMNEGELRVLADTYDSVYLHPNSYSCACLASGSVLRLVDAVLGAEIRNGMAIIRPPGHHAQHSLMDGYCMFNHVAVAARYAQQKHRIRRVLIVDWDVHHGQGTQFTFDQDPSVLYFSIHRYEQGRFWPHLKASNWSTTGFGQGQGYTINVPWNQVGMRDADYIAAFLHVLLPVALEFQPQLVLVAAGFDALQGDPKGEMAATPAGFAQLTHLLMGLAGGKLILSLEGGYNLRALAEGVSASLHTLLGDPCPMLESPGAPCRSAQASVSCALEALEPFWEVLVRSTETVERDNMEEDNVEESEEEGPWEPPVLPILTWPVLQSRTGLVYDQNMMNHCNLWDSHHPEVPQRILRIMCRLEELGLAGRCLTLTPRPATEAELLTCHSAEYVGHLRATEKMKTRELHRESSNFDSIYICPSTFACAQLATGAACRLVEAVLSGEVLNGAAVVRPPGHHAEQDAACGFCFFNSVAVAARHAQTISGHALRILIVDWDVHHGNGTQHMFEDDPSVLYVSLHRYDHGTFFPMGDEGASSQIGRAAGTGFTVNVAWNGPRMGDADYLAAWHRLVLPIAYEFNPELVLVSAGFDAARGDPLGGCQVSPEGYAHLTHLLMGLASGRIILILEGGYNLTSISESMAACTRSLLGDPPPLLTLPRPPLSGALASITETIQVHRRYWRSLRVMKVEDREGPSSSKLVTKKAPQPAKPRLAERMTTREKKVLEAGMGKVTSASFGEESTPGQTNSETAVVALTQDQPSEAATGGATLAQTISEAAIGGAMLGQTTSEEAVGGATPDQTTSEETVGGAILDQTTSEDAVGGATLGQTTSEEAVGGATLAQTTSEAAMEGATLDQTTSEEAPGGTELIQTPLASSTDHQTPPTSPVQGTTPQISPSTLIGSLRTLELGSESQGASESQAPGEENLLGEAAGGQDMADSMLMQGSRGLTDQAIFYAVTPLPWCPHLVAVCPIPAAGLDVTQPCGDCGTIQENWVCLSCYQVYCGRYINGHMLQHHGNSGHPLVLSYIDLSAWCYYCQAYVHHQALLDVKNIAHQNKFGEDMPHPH
test name: HDAC6 enzyme activity inhibition assay (in vitro, fluorimetric)
condition set: human recombinant HDAC6, fluorimetric kit, same protocol as HDAC1
quantity: pIC50
Formally, pIC50 is defined as -log10 of the concentration c, with c in mol/L.

molecule | system name | measured value
C[C@@H]1CN(Cc2ccc(C(=O)NO)cc2)C[C@H](C)N1C(=O)c1cccc(-c2cccnc2)c1 | human recombinant HDAC6 (Homo sapiens) | 6.89
C[C@@H]1CN(S(=O)(=O)c2ccc(CC(=O)NO)cc2)C[C@H](C)N1Cc1ccccc1 | human recombinant HDAC6 (Homo sapiens) | 6.60
C[C@@H]1CN(Cc2ccc(C(=O)NO)cc2)C[C@H](C)N1Cc1ccc(CN2CCN(Cc3ccccc3)CC2)cc1 | human recombinant HDAC6 (Homo sapiens) | 7.89

**Query** pIC50 lookup needed for C[C@@H]1CN(Cc2ccc(C(=O)NO)cc2)C[C@H](C)N1Cc1cccc(CN2CCN(Cc3ccccc3)CC2)c1 , thanks.
**Result** 6.72

**Query** So what's the measured pIC50 for this one? C[C@@H]1CN(Cc2ccc(C(=O)NO)cc2)C[C@H](C)N1C(=O)C(C)(C)C
**Result** 7.13

**Query** For the molecule shown here, C[C@@H]1CN(C(=O)N2CCc3ccccc32)C[C@H](C)N1Cc1ccc(C(=O)NO)cc1 , give the reported pIC50.
**Result** 6.75

**Query** # pIC50 lookup, item C[C@@H]1CN(Cc2ccc(C(=O)NO)cc2)C[C@H](C)N1Cc1cccc(C2=CCC(C)(C)CC2)c1
**Result** 6.39

**Query** Fill blank: measured pIC50 of the molecule CC(c1ccc(C(=O)NO)cc1)N1C[C@@H](C)N(Cc2ccccc2)[C@@H](C)C1 (stereo partly drawn) is ____.
**Result** 6.77

**Query** Quick one: pIC50 for C[C@@H]1CN(Cc2ccc(C(=O)NO)cc2)C[C@H](C)N1C(=O)c1cccc(-c2ccco2)c1 ?
**Result** 7.01

**Query** So what does the record say about pIC50 for C[C@@H]1CN(S(=O)(=O)c2cccnc2)C[C@H](C)N1Cc1ccc(C(=O)NO)cc1 ?
**Result** 6.98

**Query** Return reported pIC50; argument: C[C@@H]1CN(Cc2cccc(CN3CCCC3)c2)C[C@H](C)N1Cc1ccc(/C=C/C(=O)NO)cc1
**Result** 6.94
